As shown below, each of these molecules has a reported pIC50 value.
target_desc: Menin MLL 4-43 (Homo sapiens, UniProt O00255)
Sequence (O00255 whole entry): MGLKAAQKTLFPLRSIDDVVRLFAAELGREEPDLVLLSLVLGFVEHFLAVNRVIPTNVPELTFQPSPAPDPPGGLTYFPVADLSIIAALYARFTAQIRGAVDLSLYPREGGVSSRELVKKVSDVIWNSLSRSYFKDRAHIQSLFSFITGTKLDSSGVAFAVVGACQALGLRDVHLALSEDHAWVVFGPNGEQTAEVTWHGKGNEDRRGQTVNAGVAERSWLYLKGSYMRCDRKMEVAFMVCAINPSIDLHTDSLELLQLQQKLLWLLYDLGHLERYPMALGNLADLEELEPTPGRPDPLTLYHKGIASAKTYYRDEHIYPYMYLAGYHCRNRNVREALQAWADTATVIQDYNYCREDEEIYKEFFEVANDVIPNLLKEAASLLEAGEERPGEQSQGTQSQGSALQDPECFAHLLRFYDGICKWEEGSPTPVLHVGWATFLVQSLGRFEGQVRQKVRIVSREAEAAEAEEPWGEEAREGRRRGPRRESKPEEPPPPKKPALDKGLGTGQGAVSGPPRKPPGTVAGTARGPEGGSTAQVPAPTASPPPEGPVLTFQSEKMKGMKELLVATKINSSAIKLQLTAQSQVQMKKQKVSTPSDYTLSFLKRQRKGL
assay_comment: Fluorescence polarization (FP) competition assay of the menin-MLL interaction
Format: binding
cond: fluorescence polarization assay; read-out: Menin MLL 4-43 IC50
pIC50: −log10 of the molar value.
test_readout: pIC50

molecule | data_value
Cc1c(CN2CCC(Nc3ncnc4sc(CC(F)(F)F)cc34)CC2)ccc2c1cc(C#N)n2C[C@H](C)N1CCC(NP(C)(C)=O)CC1 | 6.00 to 7.70
C=CC(=O)N(C)c1ccc(CCn2c(C#N)cc3c(C)c(CN4CCC(Nc5ncnc6sc(CC(F)(F)F)cc56)CC4)ccc32)cc1 | < 6.00
CNc1nc(NC2CCN(Cc3ccc4c(cc(C#N)n4CCN4CCC(S(C)(=O)=O)CC4)c3C)CC2)c2cc(CC(F)(F)F)sc2n1 | > 7.30
Cc1c(CN2CCC(Nc3nc(CF)nc4sc(CC(F)(F)F)cc34)CC2)ccc2c1cc(C#N)n2C[C@H](C)N1CCN(S(C)(=O)=O)CC1 | 6.60 to 7.30
Cc1c(CN2CCC(Nc3nc(N)nc4sc(CC(F)(F)F)cc34)CC2)ccc2c1cc(C#N)n2C[C@H](C)N1CCN(CC(=O)N(C)C)CC1 | > 7.30
Cc1nc(NC2CCN(Cc3ccc4c(cc(C#N)n4CCN4CCC(S(C)(=O)=O)CC4)c3C)CC2)c2cc(CC(F)(F)F)sc2n1 | > 7.30
Cc1c(CN2CCC(Nc3ncnc4sc(CC(F)(F)F)cc34)CC2)ccc2c1cc(C#N)n2CCN1CC2(C1)CN(S(C)(=O)=O)C2 | 6.00 to 7.70
Cc1c(CN2CCC(Nc3ncnc4sc(CC(F)(F)F)cc34)CC2)ccc2c1cc(C#N)n2CCN1C[C@@H](C)N(S(C)(=O)=O)[C@@H](C)C1 | 6.60 to 7.30
CNC(=O)CC1CCN([C@@H](C)Cn2c(C#N)cc3c(C)c(CN4CCC(Nc5nc(NC)nc6sc(CC(F)(F)F)cc56)CC4)ccc32)CC1 | > 7.30
Cc1c(CN2CCC(Nc3ncnc4sc(CC(F)(F)F)cc34)CC2)ccc2c1cc(C#N)n2C[C@H](C)N1CCN(S(=O)(=O)CF)CC1 | 6.60 to 7.30
Cc1c(CN2CCC(Nc3ncnc4sc(CC(F)(F)F)cc34)CC2)ccc2c1cc(C#N)n2CC(=O)N1CCN(S(C)(=O)=O)CC1 | < 6.00
Cc1c(CN2CCC(Nc3ncnc4sc(CC(F)(F)F)cc34)CC2)ccc2c1cc(C#N)n2CCC1(C)CCN(S(C)(=O)=O)CC1 | < 6.00
CC[C@@H]1CN(C(C)Cn2c(C#N)cc3c(C)c(CN4CCC(Nc5ncnc6sc(CC(F)(F)F)cc56)CC4)ccc32)CCN1S(C)(=O)=O (stereo partly drawn) | 6.60 to 7.30
Cc1c(CN2CCC(Nc3ncnc4sc(CC(F)(F)F)cc34)CC2)ccc2c1cc(C#N)n2C[C@@H](C)N1CCN(C=O)CC1 | 6.00 to 7.70
Cc1c(CN2CCC(Nc3ncnc4sc(CC(F)(F)F)cc34)CC2)ccc2c1cc(C#N)n2C[C@H](C)N1CCN(S(=O)(=O)CF)[C@H](C)C1 | 6.60 to 7.30
CNc1nc(NC2CCN(Cc3ccc4c(cc(C#N)n4C[C@H](C)N4CCN(CC(=O)N(C)C)CC4)c3C)CC2)c2cc(CC(F)(F)F)sc2n1 | > 7.30
Cc1c(CN2CCC(Nc3ncnc4sc(CC(F)(F)F)cc34)CC2)ccc2c1cc(C#N)n2CCC1CCN(S(C)(=O)=O)C(C)C1 (stereo not drawn) | 6.00 to 7.70
Cc1c(CN2CCC(Nc3ncnc4sc(CC(F)(F)F)cc34)CC2)ccc2c1cc(C#N)n2CCN1C[C@H](C)N(S(C)(=O)=O)[C@@H](C)C1 | 6.60 to 7.30
CCOC(=O)c1c(CC(F)(F)F)sc2ncnc(NC3CCN(Cc4ccc5c(cc(C#N)n5C[C@H](C)N5CCN(S(C)(=O)=O)CC5)c4C)CC3)c12 | < 6.00
CC(=O)OCc1nc(NC2CCN(Cc3ccc4c(cc(C#N)n4C[C@H](C)N4CCN(S(C)(=O)=O)CC4)c3C)CC2)c2cc(CC(F)(F)F)sc2n1 | 6.60 to 7.30
CNc1nc(NC2CCN(Cc3ccc4c(cc(C#N)n4C[C@H](C)N4CCN(S(C)(=O)=O)[C@H](C(=O)N(C)C)C4)c3C)CC2)c2cc(CC(F)(F)F)sc2n1 | > 7.30
C[C@@H](Cn1c(C#N)cc2cc(CN3CCC(Nc4ncnc5sc(CC(F)(F)F)cc45)CC3)c(O)cc21)N1CCN(C=O)CC1 | 6.60 to 7.30
Cc1nc(NC2CCN(Cc3ccc4c(cc(C#N)n4C[C@H](C)N4CCS(=O)(=O)CC4)c3C)CC2)c2cc(CC(F)(F)F)sc2n1 | > 7.30
Cc1c(CN2CCC(Nc3ncnc4sc(CC(F)(F)F)cc34)CC2)ccc2c1cc(C#N)n2CCN1C(C)CN(S(C)(=O)=O)CC1C (stereo not drawn) | < 6.00
